test: Example 1 single-dose plasma pharmacokinetics after intranasal administration; assay type: in vivo, human; conditions: female, human, plasma, inhaled or intranasal, 160 mg, Female healthy subjects; single intranasal 160 mg cocaine HCl; plasma; read-out: Tmax (Geometric mean)
measured metric: Tmax (min)

COC(=O)[C@H]1[C@@H](OC(=O)c2ccccc2)C[C@@H]2CC[C@H]1N2C [Cocaine, cocaine, reference compound]    23.1

----------
test: Example 1 single-dose plasma pharmacokinetics after intranasal administration; type: in vivo, human; conditions: female, human, plasma, inhaled or intranasal, 160 mg, Female healthy subjects; single intranasal 160 mg cocaine HCl; plasma; read-out: t1/2 (Geometric mean) (converted)
measured metric: half-life (min)

COC(=O)[C@H]1[C@@H](OC(=O)c2ccccc2)C[C@@H]2CC[C@H]1N2C [Cocaine, cocaine, reference compound]    56.5

----------
experiment: Example 2 plasma pharmacokinetics, normal renal function vs severe renal impairment; details: both, human, plasma, inhaled or intranasal, 160 mg, AUC0→∞ (Median), severe renal impairment; single intranasal 160 mg cocaine HCl
measured metric: AUC(0-inf) (ng·h/mL)

COC(=O)[C@H]1[C@@H](OC(=O)c2ccccc2)C[C@@H]2CC[C@H]1N2C [Cocaine, cocaine, reference compound]    110

----------
experiment: Example 2 urinary pharmacokinetics, normal renal function vs severe renal impairment; conditions: human, urine and plasma, inhaled or intranasal, 160 mg, CLr (Geometric Least Squares Mean, ANOVA), Impaired renal function (severe); single intranasal 160 mg cocaine HCl
measured metric: CL renal

COC(=O)[C@H]1[C@@H](OC(=O)c2ccccc2)C[C@@H]2CC[C@H]1N2C [Cocaine, cocaine, reference compound]    17.3 mL/min

----------
test: Example 1 single-dose plasma pharmacokinetics after intranasal administration; type: in vivo, human; conditions: female, human, plasma, inhaled or intranasal, 160 mg, Female healthy subjects; single intranasal 160 mg cocaine HCl; plasma; read-out: Cmax (Median)
measured metric: Cmax

COC(=O)[C@H]1[C@@H](OC(=O)c2ccccc2)C[C@@H]2CC[C@H]1N2C [Cocaine, cocaine, reference compound]    37 ng/mL

----------
assay: Example 2 plasma pharmacokinetics, normal renal function vs severe renal impairment; settings: both, human, plasma, other: intranasal (drug-soaked pledgets in the nasal cavity), 160 mg, AUCinf, range observed, renally impaired patients
measured metric: AUC(0-inf)

COC(=O)[C@H]1[C@@H](OC(=O)c2ccccc2)C[C@@H]2CC[C@H]1N2C [Cocaine, cocaine, reference compound]    61.2 to 180 ng·h/mL

----------
assay: Example 3 plasma pharmacokinetics, normal hepatic function vs hepatic impairment; settings: both, human, plasma, inhaled or intranasal, 160 mg, Tmax (Median), normal hepatic function; single intranasal 160 mg cocaine HCl
measured metric: Tmax (min)

COC(=O)[C@H]1[C@@H](OC(=O)c2ccccc2)C[C@@H]2CC[C@H]1N2C [Cocaine, cocaine, reference compound]    30

----------
experiment: Example 2 urinary pharmacokinetics, normal renal function vs severe renal impairment; settings: human, urine and plasma, inhaled or intranasal, 160 mg, Renal Clearance, CLr (median), normal renal function; single intranasal 160 mg cocaine HCl
measured metric: CL renal

COC(=O)[C@H]1[C@@H](OC(=O)c2ccccc2)C[C@@H]2CC[C@H]1N2C [Cocaine, cocaine, reference compound]    33.7 mL/min

----------
Experiment: Example 1 single-dose plasma pharmacokinetics after intranasal administration
Type: in vivo, human
Details: female, human, plasma, inhaled or intranasal, 160 mg, Female healthy subjects; single intranasal 160 mg cocaine HCl; plasma; read-out: AUCinf (Geometric mean)
Description: Single-dose plasma and urinary pharmacokinetics of the pharmaceutical composition following intranasal administration was characterized in this study. This was a single-dose study in 30 healthy volunteers. […] The effect of gender on Cmax, Tmax, AUClast, AUCinf, and t1/2 was determined. The effects of age, body weight, and BMI on AUClast were determined.
measured metric: AUC(0-inf)

COC(=O)[C@H]1[C@@H](OC(=O)c2ccccc2)C[C@@H]2CC[C@H]1N2C [Cocaine, cocaine, reference compound]    53.9 ng·h/mL

----------
assay: Example 2 plasma pharmacokinetics, normal renal function vs severe renal impairment; conditions: both, human, plasma, inhaled or intranasal, 160 mg, Cmax (Median), severe renal impairment; single intranasal 160 mg cocaine HCl
measured metric: Cmax (ng/mL)

COC(=O)[C@H]1[C@@H](OC(=O)c2ccccc2)C[C@@H]2CC[C@H]1N2C [Cocaine, cocaine, reference compound]    55.4

----------
experiment: Example 1 urinary pharmacokinetics after intranasal administration; assay type: in vivo, human; conditions: human, urine, other: intranasal, 160 mg, healthy subjects; single intranasal 160 mg cocaine HCl; urine 0-12 h; metabolites as cocaine equivalents; read-out: Urinary Recovery (Mean)
measured metric: dose excreted (%)

COC(=O)[C@H]1[C@@H](OC(=O)c2ccccc2)C[C@@H]2CC[C@H]1N2C [Cocaine, cocaine, reference compound]    0.0729

----------
assay: Example 2 plasma pharmacokinetics, normal renal function vs severe renal impairment; details: both, human, plasma, inhaled or intranasal, 160 mg, AUC0→∞ (Mean), severe renal impairment; single intranasal 160 mg cocaine HCl
measured metric: AUC(0-inf) (ng·h/mL)

COC(=O)[C@H]1[C@@H](OC(=O)c2ccccc2)C[C@@H]2CC[C@H]1N2C [Cocaine, cocaine, reference compound]    120

----------
assay: Example 2 urinary pharmacokinetics, normal renal function vs severe renal impairment; conditions: both, human, urine, inhaled or intranasal, 160 mg, Renal Clearance, CLr (geometric mean), normal renal function; single intranasal 160 mg cocaine HCl
measured metric: CL renal (mL/min)

COC(=O)[C@H]1[C@@H](OC(=O)c2ccccc2)C[C@@H]2CC[C@H]1N2C [Cocaine, cocaine, reference compound]    26.8

----------
assay: Example 2 plasma pharmacokinetics, normal renal function vs severe renal impairment; details: both, human, plasma, inhaled or intranasal, 160 mg, t1/2 (Mean), severe renal impairment; single intranasal 160 mg cocaine HCl
measured metric: half-life

COC(=O)[C@H]1[C@@H](OC(=O)c2ccccc2)C[C@@H]2CC[C@H]1N2C [Cocaine, cocaine, reference compound]    6.02 h

----------
assay: Example 2 plasma pharmacokinetics, normal renal function vs severe renal impairment; conditions: both, human, plasma, inhaled or intranasal, 160 mg, AUClast (Geometric Least Squares Mean, ANOVA), Impaired renal function (severe); single intranasal 160 mg cocaine HCl
measured metric: AUC(0-t) (ng·h/mL)

COC(=O)[C@H]1[C@@H](OC(=O)c2ccccc2)C[C@@H]2CC[C@H]1N2C [Cocaine, cocaine, reference compound]    106

----------
Test: Example 1 urinary pharmacokinetics after intranasal administration
Type: in vivo, human
Settings: human, urine, inhaled or intranasal, 160 mg, healthy subjects; single intranasal 160 mg cocaine HCl; read-out: Renal Clearance (Median) (converted)
Description: A single dose of a pharmaceutical composition was administered to both nostrils using cottonoid pledgets. […] Each pledget absorbed approximately 1 mL of pharmaceutical composition (i.e., 40 mg cocaine hydrochloride). Two soaked pledgets were placed into each nasal cavity of the subject and against the anterior septum for 20 minutes; thus, a total dose of 160 mg of cocaine hydrochloride was administered. […] Urinary pharmacokinetic parameters were analyzed using noncompartmental methods.
measured metric: CL renal (mL/min)

COC(=O)[C@H]1[C@@H](OC(=O)c2ccccc2)C[C@@H]2CC[C@H]1N2C [Cocaine, cocaine, reference compound]    42.7

----------
experiment: Example 3 plasma pharmacokinetics, normal hepatic function vs hepatic impairment; settings: both, human, plasma, inhaled or intranasal, 160 mg, Cmax (Geometric mean), hepatic impairment; single intranasal 160 mg cocaine HCl
measured metric: Cmax (ng/mL)

COC(=O)[C@H]1[C@@H](OC(=O)c2ccccc2)C[C@@H]2CC[C@H]1N2C [Cocaine, cocaine, reference compound]    41.2

----------
test: Example 3 plasma pharmacokinetics, normal hepatic function vs hepatic impairment; conditions: both, human, plasma, other: intranasal (drug-soaked pledgets in the nasal cavity), 160 mg, Cmax (Geometric Least Squares Mean, ANOVA), Normal hepatic function
measured metric: Cmax (ng/mL)

COC(=O)[C@H]1[C@@H](OC(=O)c2ccccc2)C[C@@H]2CC[C@H]1N2C [Cocaine, cocaine, reference compound]    44.2

----------
experiment: Example 1 single-dose plasma pharmacokinetics after intranasal administration; assay type: in vivo, human; details: male, human, plasma, inhaled or intranasal, 160 mg, Male healthy subjects; single intranasal 160 mg cocaine HCl; plasma; read-out: t1/2 (Geometric mean) (converted)
measured metric: half-life (h)

COC(=O)[C@H]1[C@@H](OC(=O)c2ccccc2)C[C@@H]2CC[C@H]1N2C [Cocaine, cocaine, reference compound]    1.01

----------
assay: Example 2 urinary pharmacokinetics, normal renal function vs severe renal impairment; conditions: human, urine and plasma, inhaled or intranasal, 160 mg, Renal Clearance (mean), severe renal impairment; single intranasal 160 mg cocaine HCl
measured metric: CL renal (mL/min)

COC(=O)[C@H]1[C@@H](OC(=O)c2ccccc2)C[C@@H]2CC[C@H]1N2C [Cocaine, cocaine, reference compound]    20.4

----------
test: Example 1 single-dose plasma pharmacokinetics after intranasal administration; assay type: in vivo, human; settings: female, human, plasma, inhaled or intranasal, 160 mg, Female healthy subjects; single intranasal 160 mg cocaine HCl; plasma; read-out: Tmax (Median)
measured metric: Tmax

COC(=O)[C@H]1[C@@H](OC(=O)c2ccccc2)C[C@@H]2CC[C@H]1N2C [Cocaine, cocaine, reference compound]    20 min

The reported measurements were obtained from patent US10413505B1.
